target.entity: cdk2/cyclin A complex (Homo sapiens)
measurement.protocol: inhibition assay of cdk2/Cyclin A activity (MultiScreen-PH phosphocellulose filter, 33P-labelled histone H1)
recorded.conditions: histone H1 substrate, 25 μM ATP; inhibitor 0.0045 to 10 μM; read-out: inhibiting activity towards the cdk2/cyclin A complex (IC50)
pIC50: −log10 of the molar value.

structure.string: Cc1cc(C)cc(NC(=O)Nc2ncc(C(C)C)s2)c1
target.entity: cdk2/cyclin A complex (Homo sapiens)
pIC50: 6.25
